Recorded values, source PubChem BioAssay (EPA / NIEHS).

- Read-out: solute carrier (SLC10A1), SLC10A1 (gene 6554)
- TEST NAME: LTEA_HepaRG_SLC10A1: Life Technologies and Expression Analysis (LTEA) Assay for solute carrier (SLC10A1) using HepaRG (AID 2283657)
- TEST PARAMETERS: mRNA level, 48 h; actives raise or lower the signal
Active and inactive are the calls of the source. Rule for the calls: active = hit-call score of the fitted dose curve at least 0.9, where 1 is the maximum; inactive = score below 0.9.
API: response.call in 1 (active), -1 (inactive)

CCCCC(C#N)(Cn1cncn1)c1ccc(Cl)cc1 (centres undefined) | 1
CCC(C)n1c(=O)[nH]c(C)c(Br)c1=O (centres undefined) | 1
Nc1c(Cl)c(Cl)nc(C(=O)O)c1Cl | -1

Next, consider the following compound.
### Prompt Hello, I am checking results. What call was entered for `CC(C)Oc1cccc(NC(=O)c2ccccc2C(F)(F)F)c1` ?
### Response 1

----------
- TEST NAME: CEETOX_H295R_CORTISOL: CeeTox H295R High-throughput Steroidogenesis Assay for Cortisol (AID 2283438);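 note: cortisol secreted into medium quantified by LC-MS/MS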
- TEST PARAMETERS: actives raise or lower the signal
Active and inactive are the calls of the source. How the source made its calls: active means hit-call score of the fitted dose curve at least 0.9, where 1 is the maximum; inactive means score below 0.9.
API: response.call in active, inactive

Clc1nc(Cl)nc(Nc2ccccc2Cl)n1 | inactive
CCNP(=S)(OC)O/C(C)=C/C(=O)OC(C)C (centres undefined) | inactive
CCOP(=S)(OCC)Oc1nc(Cl)n(C(C)C)n1 | inactive

### Prompt Hello, I am checking results. What call was entered for COCc1cnc(C2=NC(C)(C(C)C)C(=O)N2)c(C(=O)O)c1 (centres undefined) ?
### Response inactive

### Prompt Hello, I am checking results. What call was entered for `COc1cc(Cl)c(OC)cc1Cl` ?
### Response inactive

### Prompt Hello, I am checking results. What call was entered for CCCCC(C#N)(Cn1cncn1)c1ccc(Cl)cc1 (centres undefined) ?
### Response active

### Prompt Hello, I am checking results. What call was entered for `COC(=O)NC(=S)Nc1ccccc1NC(=S)NC(=O)OC` ?
### Response inactive

### Prompt Hello, I am checking results. What call was entered for `CC(C)Oc1cccc(NC(=O)c2ccccc2C(F)(F)F)c1` ?
### Response active

### Prompt Hello, I am checking results. What call was entered for `O=C(Nc1ccccc1-c1ccc(Cl)cc1)c1cccnc1Cl` ?
### Response inactive

----------
- Read-out: Cytochrome P450 3A4 (Homo sapiens) (UniProt P08684)
- Sequence (P08684 whole entry, looked up): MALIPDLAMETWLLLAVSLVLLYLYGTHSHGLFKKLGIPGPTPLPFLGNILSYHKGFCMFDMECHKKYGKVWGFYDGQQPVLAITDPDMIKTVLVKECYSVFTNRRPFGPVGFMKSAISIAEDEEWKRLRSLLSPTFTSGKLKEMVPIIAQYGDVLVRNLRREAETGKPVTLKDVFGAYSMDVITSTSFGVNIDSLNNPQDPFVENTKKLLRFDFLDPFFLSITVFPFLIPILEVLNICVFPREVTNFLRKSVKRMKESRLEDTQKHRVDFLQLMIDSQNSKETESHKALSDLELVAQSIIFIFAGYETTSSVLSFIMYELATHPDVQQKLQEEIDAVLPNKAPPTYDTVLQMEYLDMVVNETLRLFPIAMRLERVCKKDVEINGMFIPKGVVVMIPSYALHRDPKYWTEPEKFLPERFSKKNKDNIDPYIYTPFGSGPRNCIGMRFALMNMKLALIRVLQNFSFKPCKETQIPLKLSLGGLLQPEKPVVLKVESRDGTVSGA
- TEST NAME: CLD_CYP3A4_24hr: CellzDirect (CLD) Gene Expression Assay for xenobiotic metabolism (CYP3A4) at 24 hours (AID 2283689)
Inconclusive results are not listed. Active and inactive are the calls of the source. How the source made its calls: active means hit-call score of the fitted dose curve at least 0.9, where 1 is the maximum; inconclusive means response in the unintended direction; inactive means score below 0.9.
API: response.call in active, inactive

CCCC(=NOCC)C1=C(O)CC(CC(C)SCC)CC1=O (stereo not drawn) | active
CC1(C)C(C(=O)OC(C#N)c2cccc(Oc3ccccc3)c2)C1(C)C (stereo not drawn) | active
CCOP(=O)(OCC)Oc1nc(Cl)c(Cl)cc1Cl | active
CCCN(CC)CC1COC2(CCC(C(C)(C)C)CC2)O1 (stereo not drawn) | active
CC1(C)CON(Cc2ccccc2Cl)C1=O | active

### Prompt Hello, I am checking results. What call was entered for `Clc1nc(Cl)nc(Nc2ccccc2Cl)n1` ?
### Response inactive

### Prompt Hello, I am checking results. What call was entered for CCOc1cc(C(C)(C)C)ccc1C1COC(c2c(F)cccc2F)=N1 (stereo not drawn) ?
### Response active

### Prompt Hello, I am checking results. What call was entered for `Cc1c(COC(=O)[C@@H]2[C@H](/C=C(\Cl)C(F)(F)F)C2(C)C)cccc1-c1ccccc1` ?
### Response active

### Prompt Hello, I am checking results. What call was entered for `CCOc1nc(F)cc2nc(S(=O)(=O)Nc3c(Cl)cccc3Cl)nn12` ?
### Response active

### Prompt Hello, I am checking results. What call was entered for CCOC(=O)C(C)OC(=O)c1cc(Oc2ccc(C(F)(F)F)cc2Cl)ccc1[N+](=O)[O-] (stereo not drawn) ?
### Response active
